# selectivity ratio per entry
- assay.explanation: Selectivity index, ratio of CC50 for African green monkey Vero cells to EC50 for Zika virus
- Type: toxicity
- settings: read-out: Ratio CC50/EC50
Returns: the value as a bare number; no unit string appended.

mol	selectivity ratio
O=[N+]([O-])c1ccc(C=NCCNc2ccnc3cc(Cl)ccc23)o1	515

Reported selectivity ratio for Clc1ccc2c(NCCN=Cc3cccnc3)ccnc2c1 was 170

selectivity ratio in this record for COc1cccc(C=NCCNc2ccnc3cc(Cl)ccc23)c1O : 304

Record summary for O=[N+]([O-])c1ccc(C=NCCNc2ccnc3cc(Cl)ccc23)s1 : reported selectivity ratio = 318

selectivity ratio reading for Fc1ccc(C=NCCNc2ccnc3cc(Cl)ccc23)cc1 : 356

Entry Clc1ccc2c(NCCN=Cc3ccncc3)ccnc2c1 — recorded selectivity ratio = 380

Record Clc1ccc2c(NCCN=Cc3ccccc3)ccnc2c1 , field selectivity ratio: 407

GET /value?item= O=[N+]([O-])c1ccc(C=NCCNc2ccnc3cc(Cl)ccc23)cc1 &field=selectivity ratio returns 341

Per the records, this compound ( COc1cccc(OC)c1C=NCCNc1ccnc2cc(Cl)ccc12 ) has selectivity ratio equal to 305
